Tested on: ddY-strain male mice
Assay: Acute Toxicity
Type: in vivo
Settings: i.v., mortality at 14 days after administration
MLD (minimum lethal dose) values for the molecules below.
Give the number; mg/kg is assumed, so skip it.

Sample answers from the record:
COC(=O)c1c(C)[nH]c2c(OC(=O)c3cccnc3)cc3c(c12)C(CBr)CN3C(=O)/C=C/c1cnc(OC)nc1 (stereo not drawn)	1.0
COC(=O)c1c(C)[nH]c2c(OC(=O)N3CCN(C)CC3)cc3c(c12)C(CBr)CN3C(=O)/C=C/c1ccc(OC)c(N(C)C)c1 (stereo not drawn)	4.0

Let's switch to this molecule now.
Entry COC(=O)c1c(C)[nH]c2c(OC(=O)c3ccc(N(C)C)cc3)cc3c(c12)C(CBr)CN3C(=O)/C=C/c1ccc(OC)c(N(C)C)c1 (stereo not drawn) under ddY-strain male mice had MLD (minimum lethal dose) of 1.0

Cited source for all entries: patent US5670492A
